Data origin: PubChem BioAssay AID1259412

The following molecules are shown together with reported growth (% of control) values.
TEST: AOX inhibitors, oxygen consumption, profiling panel (AID 1259412);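 as to growth (% of control): growth monitored over 72 h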
CONDITION_SET: AOX-dependent respiration, O2 uptake; measured here: growth, control condition; at 500 µM
MEASUREMENT_KIND: growth (% of control) (%)

- SMILES_RECORD: "O=C(NCc1ccc2c(c1)OCO2)c1ccccc1"
  REPORTED_VALUE: 65.8
- SMILES_RECORD: "COc1cccc(C(=O)Nc2cccc(Br)c2)c1"
  REPORTED_VALUE: 92
- SMILES_RECORD: "Nc1cccc(S(=O)(=O)c2cccc(NC(=O)c3ccccc3)c2)c1"
  REPORTED_VALUE: 84.2
- SMILES_RECORD: "N#Cc1cccc(C(=O)Nc2cccc(Br)c2)c1"
  REPORTED_VALUE: 89.7
- SMILES_RECORD: "N#Cc1cccc(C(=O)Nc2cccc(C(F)(F)F)c2)c1"
  REPORTED_VALUE: 90.1
- SMILES_RECORD: "O=C(Nc1ccc(N2CCOCC2)cc1)c1cccc(Br)c1"
  REPORTED_VALUE: 92.2
- SMILES_RECORD: "N#Cc1cccc(C(=O)Nc2cccc(NC(=O)c3cccc(C#N)c3)c2)c1"
  REPORTED_VALUE: 132
- SMILES_RECORD: "O=C(Nc1cccc([N+](=O)[O-])c1)c1cccc(I)c1"
  REPORTED_VALUE: 95.6
- SMILES_RECORD: "O=C(Nc1cccc(Cl)c1)c1ccccc1"
  REPORTED_VALUE: 118
- SMILES_RECORD: "O=C(Nc1cccc(Br)c1)c1cccc(Br)c1"
  REPORTED_VALUE: 91.3
- SMILES_RECORD: "O=C(NCc1ccc2c(c1)OCO2)c1cccc(Br)c1"
  REPORTED_VALUE: 82.8
- SMILES_RECORD: "O=C(Nc1cccc(F)c1)c1cccc(Br)c1"
  REPORTED_VALUE: 88

----------
Tested on: alternative oxidase (AOX)
TEST: AOX inhibitors, oxygen consumption, profiling panel (AID 1259412)
CONDITION_SET: AOX-dependent respiration, at 500 µM, stronger effect = lower value
Activity calls are given as the source filed them. No rule for the calls is given here.
The following compounds are shown together with reported O2 uptake (% of control) values.

- SMILES_RECORD: "N#Cc1cccc(C(=O)Nc2cccc(OCc3ccccc3)c2)c1"
  O2 uptake (% of control): "39.1% (active)"
- SMILES_RECORD: "O=C(Nc1cccc(Cl)c1)c1cccc(I)c1"
  O2 uptake (% of control): "15.4% (active)"
- SMILES_RECORD: "Cc1cccc(C(=O)Nc2ccccc2)c1"
  O2 uptake (% of control): "42.3% (active)"
- SMILES_RECORD: "O=C(Nc1cccc(NC(=O)c2cccc(Cl)c2)c1)c1cccc(Cl)c1"
  O2 uptake (% of control): "49.2% (active)"
- SMILES_RECORD: "O=C(Nc1ccc(N2CCOCC2)cc1)c1cccc(F)c1"
  O2 uptake (% of control): "86.3% (inactive)"
- SMILES_RECORD: "O=C(Nc1cccc(C(F)(F)F)c1)c1ccccc1"
  O2 uptake (% of control): "16.8% (active)"
- SMILES_RECORD: "NC(=O)c1ccccc1NC(=O)c1ccccc1I"
  O2 uptake (% of control): "84.5% (inactive)"
- SMILES_RECORD: "O=C(Nc1cccc([N+](=O)[O-])c1)c1ccccc1"
  O2 uptake (% of control): "36% (active)"

----------
TEST: AOX inhibitors, oxygen consumption, profiling panel (AID 1259412)
CONDITION_SET: AOX-dependent respiration, measured here: O2 uptake, control condition (no AOX), at 500 µM, stronger effect = lower value
The following compounds are shown together with reported O2 uptake (% of control) values.

- SMILES_RECORD: "O=C(Nc1cccc(I)c1)c1ccccc1"
  O2 uptake (% of control): "78.6%"
- SMILES_RECORD: "COc1cccc(C(=O)Nc2cccc(OCc3ccccc3)c2)c1"
  O2 uptake (% of control): "91.3%"
- SMILES_RECORD: "O=C(Nc1cccc(I)c1)c1cccc(Cl)c1"
  O2 uptake (% of control): "88.3%"
- SMILES_RECORD: "COc1cccc(C(=O)NCc2ccc3c(c2)OCO3)c1"
  O2 uptake (% of control): "95.8%"
- SMILES_RECORD: "O=C(Nc1cccc(F)c1)c1cccc(Br)c1"
  O2 uptake (% of control): "73.7%"
- SMILES_RECORD: "O=C(Nc1cccc(OCc2ccccc2)c1)c1cccc(I)c1"
  O2 uptake (% of control): "100%"
- SMILES_RECORD: "O=C(Nc1cccc(F)c1)c1cccc(F)c1"
  O2 uptake (% of control): "103%"
- SMILES_RECORD: "Nc1cccc(S(=O)(=O)c2cccc(NC(=O)c3ccccc3)c2)c1"
  O2 uptake (% of control): "112%"
- SMILES_RECORD: "O=C(NCc1ccc2c(c1)OCO2)c1cccc(Cl)c1"
  O2 uptake (% of control): "101%"
- SMILES_RECORD: "O=C(Nc1cccc(Br)c1)c1cccc(F)c1"
  O2 uptake (% of control): "77.9%"
- SMILES_RECORD: "COc1cc(NC(=O)c2cccc(F)c2)cc(OC)c1OC"
  O2 uptake (% of control): "93.1%"
- SMILES_RECORD: "COc1cccc(C(=O)Nc2cccc(C(F)(F)F)c2)c1"
  O2 uptake (% of control): "90.2%"
- SMILES_RECORD: "N#Cc1cccc(C(=O)NCc2ccc3c(c2)OCO3)c1"
  O2 uptake (% of control): "103%"
- SMILES_RECORD: "COc1cc(NC(=O)c2cccc(C#N)c2)cc(OC)c1OC"
  O2 uptake (% of control): "104%"
- SMILES_RECORD: "O=C(Nc1cccc(C(F)(F)F)c1)c1cccc(Cl)c1"
  O2 uptake (% of control): "93.2%"
- SMILES_RECORD: "Nc1cccc(S(=O)(=O)c2cccc(NC(=O)c3cccc(Cl)c3)c2)c1"
  O2 uptake (% of control): "110%"
- SMILES_RECORD: "N#Cc1cccc(C(=O)Nc2ccc(N3CCOCC3)cc2)c1"
  O2 uptake (% of control): "105%"
- SMILES_RECORD: "COc1cc(NC(=O)c2ccccc2)cc(OC)c1OC"
  O2 uptake (% of control): "95.8%"
- SMILES_RECORD: "O=C(Nc1cccc(I)c1)c1ccccc1I"
  O2 uptake (% of control): "84%"
- SMILES_RECORD: "Cc1cccc(C(=O)Nc2cccc(Cl)c2)c1"
  O2 uptake (% of control): "87.4%"
- SMILES_RECORD: "NC(=O)c1ccccc1NC(=O)c1cccc(Br)c1"
  O2 uptake (% of control): "80.8%"
- SMILES_RECORD: "O=C(Nc1cccc(C(F)(F)F)c1)c1ccccc1"
  O2 uptake (% of control): "84%"
- SMILES_RECORD: "O=C(Nc1cccc(I)c1)c1cccc(I)c1"
  O2 uptake (% of control): "96.7%"
- SMILES_RECORD: "N#Cc1cccc(C(=O)Nc2cccc(OCc3ccccc3)c2)c1"
  O2 uptake (% of control): "90.1%"
- SMILES_RECORD: "N#Cc1cccc(C(=O)Nc2cccc([N+](=O)[O-])c2)c1"
  O2 uptake (% of control): "110%"
- SMILES_RECORD: "O=C(Nc1cccc(Br)c1)c1ccccc1I"
  O2 uptake (% of control): "81%"
- SMILES_RECORD: "COc1cccc(C(=O)Nc2ccccc2C(N)=O)c1"
  O2 uptake (% of control): "93.7%"
- SMILES_RECORD: "Nc1cccc(S(=O)(=O)c2cccc(NC(=O)c3cccc(Br)c3)c2)c1"
  O2 uptake (% of control): "105%"
- SMILES_RECORD: "O=C(Nc1cccc(OCc2ccccc2)c1)c1cccc(Br)c1"
  O2 uptake (% of control): "107%"
- SMILES_RECORD: "O=C(Nc1cccc(NC(=O)c2cccc(Cl)c2)c1)c1cccc(Cl)c1"
  O2 uptake (% of control): "97.7%"
- SMILES_RECORD: "Cc1cccc(C(=O)Nc2cccc([N+](=O)[O-])c2)c1"
  O2 uptake (% of control): "98.8%"
- SMILES_RECORD: "O=C(Nc1cccc(Cl)c1)c1ccccc1"
  O2 uptake (% of control): "88%"
- SMILES_RECORD: "O=C(Nc1cccc(OCc2ccccc2)c1)c1cccc(F)c1"
  O2 uptake (% of control): "97.4%"
- SMILES_RECORD: "N#Cc1cccc(C(=O)Nc2cccc(I)c2)c1"
  O2 uptake (% of control): "87.8%"
- SMILES_RECORD: "Cc1cccc(C(=O)Nc2ccc(N3CCOCC3)cc2)c1"
  O2 uptake (% of control): "96.2%"
- SMILES_RECORD: "O=C(Nc1ccccc1)c1cccc(Br)c1"
  O2 uptake (% of control): "89.6%"
- SMILES_RECORD: "O=C(Nc1cccc(I)c1)c1cccc(Br)c1"
  O2 uptake (% of control): "92%"
- SMILES_RECORD: "COc1cccc(C(=O)Nc2cccc(S(=O)(=O)c3cccc(N)c3)c2)c1"
  O2 uptake (% of control): "105%"
- SMILES_RECORD: "O=C(Nc1cccc(NC(=O)c2cccc(Br)c2)c1)c1cccc(Br)c1"
  O2 uptake (% of control): "105%"
- SMILES_RECORD: "COc1cccc(C(=O)Nc2cccc([N+](=O)[O-])c2)c1"
  O2 uptake (% of control): "91.5%"
- SMILES_RECORD: "O=C(Nc1cccc(OCc2ccccc2)c1)c1cccc(Cl)c1"
  O2 uptake (% of control): "110%"
- SMILES_RECORD: "COc1cccc(C(=O)Nc2cc(OC)c(OC)c(OC)c2)c1"
  O2 uptake (% of control): "101%"
- SMILES_RECORD: "O=C(NCc1ccc2c(c1)OCO2)c1ccccc1"
  O2 uptake (% of control): "99.1%"
- SMILES_RECORD: "Cc1cccc(C(=O)Nc2cccc(I)c2)c1"
  O2 uptake (% of control): "93.2%"
- SMILES_RECORD: "N#Cc1cccc(C(=O)Nc2cccc(NC(=O)c3cccc(C#N)c3)c2)c1"
  O2 uptake (% of control): "107%"
- SMILES_RECORD: "COc1cc(NC(=O)c2cccc(C)c2)cc(OC)c1OC"
  O2 uptake (% of control): "83.6%"
- SMILES_RECORD: "O=C(Nc1cccc(Cl)c1)c1cccc(F)c1"
  O2 uptake (% of control): "78.3%"
- SMILES_RECORD: "N#Cc1cccc(C(=O)Nc2cccc(Cl)c2)c1"
  O2 uptake (% of control): "87.4%"
